# test.system: DNA dC->dU-editing enzyme APOBEC-3G (Homo sapiens)
# protocol.notes: qHTS for inhibitors of Vif-A3G interactions: Cherry picks counterscreen;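 further: potency means the concentration at half of the fitted maximal effect; hits raise yellow fluorescence by blocking Vif-driven A3G-eYFP degradation; nearly all actives have a fitted effect of over 70% in size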
# condition.details: HeLa A3G-eYFP + Vif, eYFP fluorescence, 24 h
Screen size: about 2,100 compounds; about 1,100 (52%) were called active. Inconclusive results (about 27%) are left out. So high a share suggests a set chosen from earlier hits. Some of the results follow.
List of Potency values.
quantity.kind: Potency

1. Cc1ccc(C2C(C(=O)c3cccs3)=C(O)C(=O)N2c2nnc(C)s2)cc1 (configuration not stated) : 19.8 µM (active)
2. CCCN1C(=O)S/C(=C\c2ccc(N3CCOCC3)o2)C1=O : 2.23 µM (active)
3. CCC(=O)Nc1ccccc1-c1nc2ccccc2n(C(C)C(=O)Nc2ccc(OC)cc2)c1=O (configuration not stated) : 8.2 µM (active)
4. O=C1/C(=C\c2cc([N+](=O)[O-])ccc2O)SC(=S)N1Cc1ccc(Cl)cc1 : 18.4 µM (active)
5. CN1CCCc2cc(/C=C/c3ccnc4ccccc34)ccc21 : 5.8 µM (active)
6. COc1ccc(OC)c(NS(=O)(=O)c2ccc(Cl)s2)c1 : 12.5 µM (active)
7. COc1ccc(-c2cnnc(N/N=C/c3ccc(O)c(OC)c3)n2)cc1 : 8.86 µM (active)
8. Cc1ccc2nc3sc(C(=O)N4CCCc5ccccc54)c(N)c3cc2c1 : 7.9 µM (active)
9. COc1ccc2oc(-c3ccccc3[N+](=O)[O-])cc(=O)c2c1 : 5.59 µM (active)
10. Cc1cccc(N2CCN(C(=O)c3cccc(N4CCCC4=O)c3)C(C)C2)c1 (configuration not stated) : 14 µM (active)
11. O=C1S/C(=C/c2ccc(N3CCOCC3)o2)C(=O)N1Cc1c(F)cccc1Cl : 2.8 µM (active)
12. CN(C)c1ccc(/C=C/c2ccnc3ccccc23)cc1O : 20.6 µM (active)
13. Oc1cccc(Nc2nc(O)c(/C=C3\C=Nc4ccccc43)s2)c1 : 20.6 µM (active)
14. Cc1cccc2cc3c(N)c(C(=O)N4CCCc5ccccc54)sc3nc12 : 9.2 µM (active)
15. O=c1[nH]c(NCc2ccco2)nnc1Cc1ccccc1Cl : 15.8 µM (active)
16. CCCCCCc1cc2cc(-c3nnc(-c4ccccc4)o3)c(=O)oc2cc1O : 1.98 µM (active)
17. Cc1cccc(Cn2c(=O)n(CCCC(=O)NCc3ccco3)c(=O)c3ccccc32)c1 : 14 µM (active)
18. NC(=O)c1ccc(Cn2c(C(=O)c3cc(Cl)c(N)c(Cl)c3)c3ccccc3[n+]2[O-])cc1 : 11.2 µM (active)
19. CCN(CC)c1ccc(/C=C/c2cccc[n+]2C)c(OC)c1 : 7.04 µM (active)
20. CCN(CC)c1ccc2c(c1)OC(N)=C(C#N)C2c1cccnc1 (configuration not stated) : 15.8 µM (active)
21. O=c1c[n+]([O-])c2ccccc2n1OCc1c(F)cccc1F : 19.8 µM (active)
22. Cc1cc(/C=C/c2ccnc3ccccc23)ccc1N(C)C : 14.6 µM (active)

====

List of Potency values.
# test.system: DNA dC->dU-editing enzyme APOBEC-3G (Homo sapiens) (UniProt Q9HC16)
# Sequence (Q9HC16 whole entry, looked up): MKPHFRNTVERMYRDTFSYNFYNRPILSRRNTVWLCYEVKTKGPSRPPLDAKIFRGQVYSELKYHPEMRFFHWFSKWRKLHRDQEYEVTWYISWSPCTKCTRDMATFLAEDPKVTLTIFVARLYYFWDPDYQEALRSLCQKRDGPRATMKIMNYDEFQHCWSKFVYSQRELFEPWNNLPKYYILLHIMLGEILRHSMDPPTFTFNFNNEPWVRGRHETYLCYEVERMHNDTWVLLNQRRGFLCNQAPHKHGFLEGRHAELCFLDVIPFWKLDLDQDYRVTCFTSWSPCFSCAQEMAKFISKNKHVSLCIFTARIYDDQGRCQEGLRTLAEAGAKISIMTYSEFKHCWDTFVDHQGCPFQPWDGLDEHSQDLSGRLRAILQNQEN
# protocol.notes: qHTS for inhibitors of Vif-A3G interactions: Cherry picks counterscreen;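 further: potency means the concentration at half of the fitted maximal effect; hits raise yellow fluorescence by blocking Vif-driven A3G-eYFP degradation; nearly all actives have a fitted effect of over 70% in size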
# condition.details: HeLa A3G-eYFP + Vif (tagged APOBEC3G with the HIV-1 protein that degrades it), eYFP fluorescence, 24 h
Screen size: about 2,100 compounds; about 1,100 (52%) were called active. Another 27% or so got no clear call; they are omitted. So high a share suggests a set chosen from earlier hits. This is one part of the list.
quantity.kind: Potency

1) CCN(CC)c1ccc2cc(-c3nc(-c4cc(OC)c(OC)c(OC)c4)no3)c(=O)oc2c1 : 0.517 µM (active)
2) C=CCOc1c(Cl)cc(C(=S)N2CCCC2)cc1OCC : 15.8 µM (active)
3) CCN(CC)c1ccc2cc(-c3nc(-c4ccccc4)no3)c(=O)oc2c1 : 2.06 µM (active)
4) O=C(NCc1ccccc1Cl)c1cccc2c1C(=O)c1ccc(-c3ccc(OC(F)(F)F)cc3)cc1S2(=O)=O : 18.4 µM (active)
5) Cc1c(C(=O)C(=O)N2CC=C(c3ccccc3)CC2)c2ccccc2n1C : 7.04 µM (active)
6) COc1ccc(NC(=O)c2cccc3ccccc23)cc1 : 15.8 µM (active)
7) COc1cccc(Cn2c(-c3nonc3NC(C)=O)nc3ccccc32)c1 : 11.6 µM (active)
8) Cc1ccc2nsnc2c1NC(=O)c1ccc(-c2cc(Cl)ccc2Cl)o1 : 14 µM (active)
9) CCN(CC)c1ccc2cc(-c3nnc(-c4cccc(Cl)c4)o3)c(=O)oc2c1 : 2.59 µM (active)
10) CCN(CC)c1ccc2cc(-c3nc4ccccc4n3C)c(=O)oc2c1 : 1.3 µM (active)
